# key: entry, value: OD450
# TESTED TARGET: T1, human TIM-3 protein with hFc tag (hTIM-3-hFc protein) (human, UniProt Q8TDQ0 22-200)
# T1 construct: also called immunogen 1; human TIM-3 extracellular domain protein; not shown: human IgG Fc fragment (hFc) of the pCpC vector
# T1 sequence: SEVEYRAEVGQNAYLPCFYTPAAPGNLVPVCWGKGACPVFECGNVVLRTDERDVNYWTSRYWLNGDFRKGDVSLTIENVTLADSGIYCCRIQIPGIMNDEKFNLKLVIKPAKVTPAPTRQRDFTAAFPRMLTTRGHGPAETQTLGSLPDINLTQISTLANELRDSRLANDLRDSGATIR
# ASSAY: ELISA, coated hTIM-3-hFc; antibody 6.6667 nM

Please fill in: OD450 reported for 7A4F10 (TIM-3 antibody purified from hybridoma, chimeric antibody of Example 2) (antibody, V domains shown, From hybridoma of Harbour H2L2 transgenic mice: human variable regions, rat constant regions) VH: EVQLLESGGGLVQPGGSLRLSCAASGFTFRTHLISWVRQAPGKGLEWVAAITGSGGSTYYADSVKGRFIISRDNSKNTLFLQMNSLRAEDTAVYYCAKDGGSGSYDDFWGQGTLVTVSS VL: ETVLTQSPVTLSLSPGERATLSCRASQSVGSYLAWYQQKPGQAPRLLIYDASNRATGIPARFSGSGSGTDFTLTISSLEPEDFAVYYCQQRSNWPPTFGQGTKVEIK = 2.92

Please fill in: OD450 reported for 39E5H1 (TIM-3 antibody purified from hybridoma, chimeric antibody of Example 2) (antibody, V domains shown, From hybridoma of Harbour H2L2 transgenic mice: human variable regions, rat constant regions) VH: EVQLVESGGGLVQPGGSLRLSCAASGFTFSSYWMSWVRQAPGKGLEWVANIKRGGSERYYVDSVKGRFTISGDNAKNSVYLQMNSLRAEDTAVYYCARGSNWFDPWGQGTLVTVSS VL: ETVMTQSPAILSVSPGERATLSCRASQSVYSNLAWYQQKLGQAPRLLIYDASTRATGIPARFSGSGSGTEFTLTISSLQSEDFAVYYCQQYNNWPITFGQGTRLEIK = 3.34

Please fill in: OD450 reported for 34B6D8 (TIM-3 antibody purified from hybridoma, chimeric antibody of Example 2) (antibody, V domains shown, From hybridoma of Harbour H2L2 transgenic mice: human variable regions, rat constant regions) VH: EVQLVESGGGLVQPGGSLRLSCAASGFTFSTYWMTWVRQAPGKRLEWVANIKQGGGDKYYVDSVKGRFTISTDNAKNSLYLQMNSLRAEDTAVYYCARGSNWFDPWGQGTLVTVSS VL: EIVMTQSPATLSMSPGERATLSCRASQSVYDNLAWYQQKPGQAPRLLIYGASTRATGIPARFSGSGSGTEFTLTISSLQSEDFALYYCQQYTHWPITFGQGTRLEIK = 3.4

Please fill in: OD450 reported for 18D2H2 (TIM-3 antibody purified from hybridoma, chimeric antibody of Example 2) (antibody, V domains shown, From hybridoma of Harbour H2L2 transgenic mice: human variable regions, rat constant regions) VH: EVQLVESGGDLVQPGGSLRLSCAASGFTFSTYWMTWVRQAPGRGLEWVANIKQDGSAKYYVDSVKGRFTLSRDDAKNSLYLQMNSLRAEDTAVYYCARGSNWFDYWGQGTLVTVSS VL: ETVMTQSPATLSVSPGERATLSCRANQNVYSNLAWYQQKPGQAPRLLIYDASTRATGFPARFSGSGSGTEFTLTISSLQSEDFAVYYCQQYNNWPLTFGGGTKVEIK = 2.86

Please fill in: OD450 reported for 57F4E5 (TIM-3 antibody purified from hybridoma, chimeric antibody of Example 2) (antibody, V domains shown, From hybridoma of Harbour H2L2 transgenic mice: human variable regions, rat constant regions) VH: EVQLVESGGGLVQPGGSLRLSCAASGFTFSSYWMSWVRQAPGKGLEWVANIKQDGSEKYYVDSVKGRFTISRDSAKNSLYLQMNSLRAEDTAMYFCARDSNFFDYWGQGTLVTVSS VL: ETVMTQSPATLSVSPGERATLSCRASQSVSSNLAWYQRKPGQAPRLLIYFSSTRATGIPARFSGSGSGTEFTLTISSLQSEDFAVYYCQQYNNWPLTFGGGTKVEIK = 3.29

Please fill in: OD450 reported for 134H3G6 (TIM-3 antibody purified from hybridoma, chimeric antibody of Example 2) (antibody, V domains shown, From hybridoma of Harbour H2L2 transgenic mice: human variable regions, rat constant regions) VH: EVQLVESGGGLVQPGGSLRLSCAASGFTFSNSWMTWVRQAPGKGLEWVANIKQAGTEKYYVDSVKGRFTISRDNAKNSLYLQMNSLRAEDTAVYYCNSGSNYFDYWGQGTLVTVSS VL: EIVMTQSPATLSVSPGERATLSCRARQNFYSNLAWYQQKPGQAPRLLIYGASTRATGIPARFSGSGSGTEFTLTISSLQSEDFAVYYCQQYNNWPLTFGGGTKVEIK = 2.57
